B1: C-terminal RRM domain of Pla1 (Pla1RRM, residues 352-566), purified [S. pombe] / Red1 residues 288-345 (Pla1 interaction region), purified [S. pombe] (parent)
chain 1: ISLPLLKQDDWLSSSKPFGSSTPNVVIEFDSDDDGDDFSNSKIEQSNLEKPPSNSENG
chain 2: DFFHRYKHYLTITAAAKTAEAQLKWAGLVESKLRHLVTRLELVDAIALAHPFNKGFDKVYNCSSEEEAQQVASGVTLEVAYESTDHEKLANDTVNEEKADNTESKADGSENGEKQIFPVYTTTCYIGLELEKKKGHPIKRLDISWPTQEFYELCKKWDKYDDTLMNVFIKNTKNTALPDEVFEPGEERPKATKKRSTADTAHSTEQLKRQKVSTA

Variants of: B1
Assay: ITC
Conditions: with Red1 residues 288-345 (Pla1 interaction region)
Reported Kd values for the following variants.

chain 2 K208E R209E K211E : 2.8 µM

Now consider the entry below.
Prompt: Requested field: Kd. Item: chain 2 K17E
Response: 17.8 µM
